# Test system: HCT-116
# method_summary: Antiproliferative activity against human HCT-116 cells assessed as inhibition of cell growth measured after 48 to 72 hrs in presence of 5-fluorouracil by MTT assay
# Type: functional, cell-based
measurement_kind: IC50 (µM)
Numbers only, in µM.

{"smiles_data": "COc1cc(C(=O)c2cn(-c3ccc(S(N)(=O)=O)cc3)c3ccccc23)cc(OC)c1OC", "IC50 [µM]": 14}

Proceeding to the next molecule to report its IC50.
# return recorded IC50 for input COc1cc(C(=O)c2cn(-c3ccc(S(N)(=O)=O)cc3)cc2-c2ccccc2)cc(OC)c1OC 17

---

# System: OVCAR-8
# method_summary: Antiproliferative activity against human OVCAR-8 cells assessed as inhibition of cell growth measured after 48 hrs by sulforhodamine B assay
# Format: functional, cell-based
# study_conditions: OVCAR-8, 48 h
I'd be grateful if you could share measured pIC50 for these entries.
One number for each entry, as −log10 of the molar value.

{"smiles_data": "COc1cc(C(=O)c2cn(-c3ccc(S(N)(=O)=O)cc3)cc2-c2ccccc2)cc(OC)c1OC", "data_value": 5.72}

# return recorded pIC50 for input COc1cc(C(=O)c2ccn(-c3ccc(S(N)(=O)=O)cc3)c2)cc(OC)c1OC 5.72

---

# experimental_system: Carbonic anhydrase 2 (Homo sapiens, UniProt P00918)
# method_summary: Binding affinity to human recombinant CA2 assessed as inhibition constant incubated for 15 mins by phenol red dye based stopped flow CO2 hydration assay
measurement_kind: Ki (nM)
One number for each entry, in nM.

# return recorded Ki for input COc1cc(C(=O)c2ccn(-c3ccc(S(N)(=O)=O)cc3)c2)cc(OC)c1OC 10.2

---

# Test system: SW480
# method_summary: Antiproliferative activity against human SW480 cells assessed as inhibition of cell growth measured after 48 to 72 hrs by XTT assay
# Format: functional, cell-based
measurement_kind: pIC50
One number for each entry, as −log10 of the molar value.

# return recorded pIC50 for input COc1cc(C(=O)c2cn(-c3ccc(S(N)(=O)=O)cc3)cc2-c2ccccc2)cc(OC)c1OC 4.75

---

I'd be grateful if you could share measured Ki for these entries.
# experimental_system: Carbonic anhydrase 12 (Homo sapiens, UniProt O43570)
# Sequence (O43570 whole entry): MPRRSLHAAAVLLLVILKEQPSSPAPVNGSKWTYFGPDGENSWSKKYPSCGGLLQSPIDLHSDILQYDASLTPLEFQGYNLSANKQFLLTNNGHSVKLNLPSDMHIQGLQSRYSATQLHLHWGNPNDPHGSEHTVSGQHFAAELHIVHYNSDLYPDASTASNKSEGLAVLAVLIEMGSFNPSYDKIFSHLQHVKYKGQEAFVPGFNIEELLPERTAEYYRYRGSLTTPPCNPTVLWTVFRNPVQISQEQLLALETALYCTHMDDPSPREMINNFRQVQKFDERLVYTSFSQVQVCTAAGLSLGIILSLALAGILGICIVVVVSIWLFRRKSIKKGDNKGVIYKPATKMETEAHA
# method_summary: Binding affinity to human recombinant CA12 assessed as inhibition constant incubated for 15 mins by phenol red dye based stopped flow CO2 hydration assay
Answers are plain numbers, in nM.

Use these answered entries as a reference point.
{"smiles_data": "NS(=O)(=O)c1ccc(-n2cc(C(=O)c3ccccc3)c3ccccc32)cc1", "data_value": 52}
{"smiles_data": "NS(=O)(=O)c1ccc(-n2ccc(C(=O)c3ccccc3)c2)cc1", "data_value": 47.1}
{"smiles_data": "COc1cc(C(=O)c2ccn(-c3ccc(S(N)(=O)=O)cc3)c2)cc(OC)c1OC", "data_value": 11.5}

Proceeding to the next compound to report its Ki.
# return recorded Ki for input NS(=O)(=O)c1ccc(-n2cc(C(=O)c3ccccc3)c(-c3ccccc3)c2)cc1 59.4

---

# Test system: MCF7
# method_summary: Antiproliferative activity against human MCF7 cells assessed as inhibition of cell growth measured after 48 hrs by sulforhodamine B assay
# Format: functional, cell-based
# study_conditions: MCF7, 48 h
I'd be grateful if you could share measured pIC50 for these entries.
One number for each entry, as −log10 of the molar value.

Look at each compound and report its pIC50.
1. COc1cc(C(=O)c2ccn(-c3ccc(S(N)(=O)=O)cc3)c2)cc(OC)c1OC
2. COc1cc(C(=O)c2cn(-c3ccc(S(N)(=O)=O)cc3)cc2-c2ccccc2)cc(OC)c1OC

5.41
5.72
